- Measured on: T1, EsCas13d, nuclease-dead (Eubacterium siraeum, UniProt B0MS50, R295A;H300A;R849A;H854A)
- T1 sequence: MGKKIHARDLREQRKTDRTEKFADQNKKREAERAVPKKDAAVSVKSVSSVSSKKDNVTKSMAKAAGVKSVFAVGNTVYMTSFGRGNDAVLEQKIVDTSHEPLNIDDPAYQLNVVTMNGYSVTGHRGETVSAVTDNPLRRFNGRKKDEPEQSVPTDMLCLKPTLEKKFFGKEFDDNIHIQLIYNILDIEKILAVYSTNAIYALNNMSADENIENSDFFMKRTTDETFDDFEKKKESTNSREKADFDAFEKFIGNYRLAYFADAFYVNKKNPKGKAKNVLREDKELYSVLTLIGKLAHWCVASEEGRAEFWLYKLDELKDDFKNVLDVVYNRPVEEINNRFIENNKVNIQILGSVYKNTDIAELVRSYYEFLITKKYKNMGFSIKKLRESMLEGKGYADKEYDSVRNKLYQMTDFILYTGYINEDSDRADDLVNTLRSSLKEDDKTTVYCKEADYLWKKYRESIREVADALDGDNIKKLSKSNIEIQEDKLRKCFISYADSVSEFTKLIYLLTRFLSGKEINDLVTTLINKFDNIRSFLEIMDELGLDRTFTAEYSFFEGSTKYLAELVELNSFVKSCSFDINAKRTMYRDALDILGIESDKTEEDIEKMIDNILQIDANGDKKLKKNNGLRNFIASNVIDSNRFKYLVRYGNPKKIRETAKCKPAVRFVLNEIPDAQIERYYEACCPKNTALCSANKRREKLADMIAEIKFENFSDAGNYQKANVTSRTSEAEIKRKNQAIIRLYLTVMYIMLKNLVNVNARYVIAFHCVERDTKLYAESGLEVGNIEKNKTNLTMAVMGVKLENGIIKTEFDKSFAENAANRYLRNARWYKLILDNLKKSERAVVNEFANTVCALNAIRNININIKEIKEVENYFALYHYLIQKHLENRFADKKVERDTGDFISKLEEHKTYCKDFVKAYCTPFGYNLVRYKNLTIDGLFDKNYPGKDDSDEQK
- Experimental details: crRNA (strand 1, pre-loaded); Mg2+; 40 mM Tris-HCl pH 7.5, 150 mM NaCl, 6 mM MgCl2, 1 mM DTT, 0.1% Tween-20, 0.2 mg/ml BSA; 25 C; 10 min per concentration, then washed
- Conditions used: tags: His6-TwinStrep-SUMO cleaved; N-terminal SNAP kept (SNAP-Surface 488); label: 3' end held by stalled T7 RNA polymerase
pKd: −log10 of the molar value.
Items are presented alongside their recorded pKd.

[
  {
    "Binder": "target 1 MT 5'PFS CUG 3'PFS AUU (mixed) RNA 1: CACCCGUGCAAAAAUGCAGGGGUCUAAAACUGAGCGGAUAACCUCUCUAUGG RNA 2: GGGAAUGGAUCCACAUCUACGAAUUCCUGCCAUAGAGAGGUUAUCCGCUCAAUUAGAUCGGAAGAGCACACGU",
    "pKd": 8.22
  },
  {
    "Binder": "target 1 insG 3' of 10 (mixed) RNA 1: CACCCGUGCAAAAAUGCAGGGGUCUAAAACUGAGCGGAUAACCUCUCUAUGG RNA 2: GGGAAUGGAUCCACAUCUACGAAUUCGUACCAUAGAGAGGUUGAUCCGCUCACCGAGAUCGGAAGAGCACACGU",
    "pKd": 7.64
  },
  {
    "Binder": "target 3 insU 3' of 11,insA 3' of 2 (mixed) RNA 1: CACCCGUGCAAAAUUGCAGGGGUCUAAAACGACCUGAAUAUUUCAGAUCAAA RNA 2: GGGAAUGGAUCCACAUCUACGAAUUCGUUUUUGAUCUGAAAUUAUUCAGGUACUGCAGAUCGGAAGAGCACACGU",
    "pKd": 7.25
  },
  {
    "Binder": "target 1 insA 3' of 15,insA 3' of 13 (mixed) RNA 1: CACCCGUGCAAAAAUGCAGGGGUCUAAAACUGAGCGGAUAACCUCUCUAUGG RNA 2: GGGAAUGGAUCCACAUCUACGAAUUCGUACCAUAGAGAAGAGUUAUCCGCUCACCGAGAUCGGAAGAGCACACGU",
    "pKd": 8.25
  }
]
